Molecular target: GRP78 (soluble / recombinant protein) (UniProt P11021 19-654)
Sequence (P11021 19-654 limits assumed): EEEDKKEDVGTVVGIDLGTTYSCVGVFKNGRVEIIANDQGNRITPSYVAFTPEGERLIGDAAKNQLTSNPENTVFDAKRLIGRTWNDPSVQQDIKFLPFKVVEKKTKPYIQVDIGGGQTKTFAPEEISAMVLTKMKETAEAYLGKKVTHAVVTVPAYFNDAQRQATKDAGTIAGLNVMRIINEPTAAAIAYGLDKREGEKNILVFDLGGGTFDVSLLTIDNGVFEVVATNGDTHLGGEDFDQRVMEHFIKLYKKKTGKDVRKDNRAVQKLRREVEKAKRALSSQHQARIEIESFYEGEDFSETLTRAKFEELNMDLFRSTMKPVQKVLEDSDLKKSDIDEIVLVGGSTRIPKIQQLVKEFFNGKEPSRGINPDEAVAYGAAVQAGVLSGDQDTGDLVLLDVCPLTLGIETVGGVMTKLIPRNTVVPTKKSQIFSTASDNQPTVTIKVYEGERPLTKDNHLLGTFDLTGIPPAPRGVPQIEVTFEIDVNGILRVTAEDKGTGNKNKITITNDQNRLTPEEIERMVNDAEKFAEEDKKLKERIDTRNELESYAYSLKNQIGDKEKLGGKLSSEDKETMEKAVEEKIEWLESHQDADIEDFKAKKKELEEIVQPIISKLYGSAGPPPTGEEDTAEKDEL
property_name: pIC50
Numbers only, as −log10 of the molar value.

binder K5 (5th kringle domain of human plasminogen) (other, also called kringle 5) SEEDCMFGNGKGYRGKRATTVTGTPCQDWAAQEPHRHSIFTPETNPRAGLEKNYCRNPDGDVGGPWCYTTNPRKLYDYCDVPQCAAPKS , pIC50 observed: 6.34

Source: patent US20260242447A1
